Experiment: Kinetic solubility of compound in FeSSIF at pH 5 incubated for 2 hr by LC-MS analysis
Format: physicochemical
Conditions: read-out: Kinetic_solubility
endpoint-label: solubility kinetic at 2 h (µg/mL)
Your answer should be a plain number; it is taken to be in µg/mL.

Query block: Reported solubility kinetic at 2 h, compound Cn1c(=O)n(C2CCC(=O)NC2=O)c2cccc(C#CCO[C@H]3CC[C@H](CN4CCC5(CC4)Cc4cc(NC(=O)c6coc7cccnc67)c(N6CCC(CO)CC6)cc4O5)CC3)c21 (stereo partly specified) : ____
Result block: 7.78

---

Biological target: CYP2D6 (Homo sapiens)
Sequence (P10635 whole entry): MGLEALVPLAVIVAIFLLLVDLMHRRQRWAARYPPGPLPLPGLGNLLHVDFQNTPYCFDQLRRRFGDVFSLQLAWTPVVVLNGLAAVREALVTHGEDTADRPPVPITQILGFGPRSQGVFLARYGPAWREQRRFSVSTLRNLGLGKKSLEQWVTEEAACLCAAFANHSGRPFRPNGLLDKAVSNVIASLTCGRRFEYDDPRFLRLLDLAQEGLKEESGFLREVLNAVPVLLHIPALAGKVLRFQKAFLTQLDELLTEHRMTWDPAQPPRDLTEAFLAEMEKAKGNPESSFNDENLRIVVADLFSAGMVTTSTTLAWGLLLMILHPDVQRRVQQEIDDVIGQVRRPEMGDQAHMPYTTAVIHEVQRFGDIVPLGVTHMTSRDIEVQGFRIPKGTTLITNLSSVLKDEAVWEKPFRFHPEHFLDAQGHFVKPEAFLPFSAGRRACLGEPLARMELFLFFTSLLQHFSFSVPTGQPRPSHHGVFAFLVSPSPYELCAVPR
Experiment: Inhibition of CYP2D6 in human liver microsome using dextromethorphan as substrate at 10 uM preincubated for 5 mins followed by NADPH addition and measured after 10 mins by LC-MS/MS analysis relative to control
Assay type: ADME
Settings: human liver microsomes, probe dextromethorphan, time 15 min
endpoint-label: inhibition at 10 min, 10 µM (%)
Your answer should be a plain number; it is taken to be in %.

Query block: Reported inhibition at 10 min, 10 µM, molecule Cn1c(=O)n(C2CCC(=O)NC2=O)c2cccc(C#CCO[C@H]3CC[C@H](CN4CCC5(CC4)Cc4cc(NC(=O)c6coc7cccnc67)c(N6CCC(CO)CC6)cc4O5)CC3)c21 (stereo partly specified) : ____
Result block: 13.8
